Reported pIC50 on UniProt Q92769 for assorted compounds, compiled from publications.
pIC50: −log10 of the molar value.
parameter measured: pIC50

1) CC(C)(Nc1ncc(-c2nnc(C(F)F)o2)cn1)c1ccc(F)cc1 ... < 4.52
2) Fc1ccc(C2(Nc3ncc(-c4nnc(C(F)F)o4)cn3)CC2)cc1 ... < 4.52
3) Nc1ccc(-c2ccccc2)cc1NC(=O)c1ccc2c(c1)ncn2CCN1CCOCC1 ... 7.70 to 8.00
4) CN(C)CCNc1ccc2cc(C(=O)Nc3cc(-c4cccs4)ccc3N)ncc2c1 ... 8.00 to 8.30
5) Nc1ccc(-c2ccc(F)cc2)nc1NC(=O)c1cnc(N2CCOCC2)nc1 ... > 6.70
6) C/C=C1\NC(=O)c2cc(F)cc(n2)CNC(=O)C[C@@H](/C=C/CCSC=O)OC(=O)[C@H](C(C)C)NC1=O ... 7.21
7) Nc1ccc(-c2ccccn2)cc1NC(=O)c1ccc(N2CCNCC2)nc1 ... 6.30 to 8.00
8) Nc1ccc(-c2ccccc2)cc1NC(=O)c1cnc(N2CCNCC2)cn1 ... 6.30 to 8.00
9) CN1C(=O)Cc2cc(C(=O)Nc3cc(-c4ccco4)ccc3N)ccc21 ... 7.40 to 7.52
